Taken from PubChem BioAssay (Tox21).

Target: Beta-2 adrenergic receptor (Homo sapiens)
Experiment: Adrenergic beta2 receptor (ADRB2) small molecule antagonists, cell-based qHTS assay (AID 1963592); note: nearly all actives have a fitted effect of over 50% in size
Settings: CHO-ADRB2 cells, isoproterenol-stimulated cAMP HTRF ratio, 0.5 h; series mostly up to 92.4 µM
Results filed as inconclusive are left out. Active and inactive are the calls of the source. Calls come from the whole dose curve.
Metric name: activity change, negative = inhibition

Some molecules with recorded activity change, negative = inhibition:
Molecule	activity change, negative = inhibition
CCC(C=O)CC	inactive
CCCC(=O)OCCC(C)C	inactive
COc1ccc(C(=O)Nc2ccccc2)cc1[N+](=O)[O-]	inactive
CCCCCCCCN	inactive
O=C(Nc1ccccc1)c1cc([N+](=O)[O-])ccc1Cl	inactive

Exercise: Report activity change, negative = inhibition, nothing else, for this molecule: `O=[N+]([O-])c1cccc(I)c1`
Key: inactive

Exercise: Report measured activity change, negative = inhibition; entry is CCC(C(=O)OCCN1CCOC(c2ccccc2)C1C)c1ccccc1 (stereo not drawn)
Key: inactive

Exercise: Give me measured activity change, negative = inhibition, please, for this molecule: `Cc1c(NC(C)C)c(=O)n(-c2ccccc2)n1C`
Key: inactive
